# SYSTEM NAME: rTbGSK3β (Trypanosoma brucei brucei)
# Sequence (Q388M1 whole entry): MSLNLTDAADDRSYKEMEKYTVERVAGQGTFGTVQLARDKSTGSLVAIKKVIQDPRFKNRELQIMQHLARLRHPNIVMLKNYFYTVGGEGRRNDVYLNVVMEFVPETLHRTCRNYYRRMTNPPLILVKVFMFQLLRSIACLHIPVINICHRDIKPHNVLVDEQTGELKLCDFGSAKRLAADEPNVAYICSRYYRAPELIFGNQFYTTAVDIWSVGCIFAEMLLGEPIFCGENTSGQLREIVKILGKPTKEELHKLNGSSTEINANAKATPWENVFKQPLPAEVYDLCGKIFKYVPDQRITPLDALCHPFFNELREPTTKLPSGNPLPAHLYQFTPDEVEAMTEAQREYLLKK
READOUT TYPE: pIC50
Give only the number. pIC50 is defined as minus log10 of concentration in molar units.

Query `Cc1cc(Nc2cc(CN3CCOCC3)c3nc(C)c(Cc4ccc(Cl)cc4F)n3n2)n[nH]1` on rTbGSK3β (Trypanosoma brucei brucei); pIC50 returned: 6.22
